Target: human apical sodium-dependent transporter (SLC10A2, ASBT) (Homo sapiens, UniProt Q12908)
Sequence (Q12908 1-348): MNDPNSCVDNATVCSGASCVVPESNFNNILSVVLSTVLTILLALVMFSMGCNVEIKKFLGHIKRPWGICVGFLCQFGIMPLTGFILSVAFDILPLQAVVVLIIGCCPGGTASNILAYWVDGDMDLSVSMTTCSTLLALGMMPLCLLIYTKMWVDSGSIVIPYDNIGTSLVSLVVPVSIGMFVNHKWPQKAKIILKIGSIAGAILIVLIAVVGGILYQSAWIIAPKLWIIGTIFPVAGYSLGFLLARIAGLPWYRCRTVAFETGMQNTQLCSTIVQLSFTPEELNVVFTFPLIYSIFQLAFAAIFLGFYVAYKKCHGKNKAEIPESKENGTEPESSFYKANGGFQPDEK
Experiment: ASBT cis-inhibition of taurocholate uptake in ASBT-MDCK cells
Settings: read-out: percent taurocholate inhibited at the highest inhibitor concentration
MEASURED METRIC: inhibition at 5 µM (%)

Solved cases (2 shown):
COC(=O)C1=C(C)NC(C)=C(C(=O)OC(C)C)C1c1cccc2nonc12 (stereo not shown) [Isradipine, isradipine]    14.4
O=C(O)C[C@H](O)C[C@H](O)/C=C/c1c(C2CC2)nc2ccccc2c1-c1ccc(F)cc1 [Pitavastatin]    10.4

P = CC(C)c1nc(N(C)S(C)(=O)=O)nc(-c2ccc(F)cc2)c1/C=C/[C@@H](O)C[C@@H](O)CC(=O)O [Rosuvastatin]
Q = CC(C)OC(=O)CCC/C=C\C[C@@H]1[C@@H](CC[C@@H](O)CCc2ccccc2)[C@H](O)C[C@@H]1O [Latanoprost, latanoprost]
Prompt: Smaller inhibition at 5 µM value, P vs Q ? Could you answer with the label of the item you picked?
Response: P

Source listed as paper PMC2909451.
